From: the supplement of paper PMC9112550

Tested on: Escherichia coli TOP10;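 further: peptides expressed intracellularly from a pBAD plasmid library in pooled LB shake-flask culture, induced with 0.3% L-arabinose, DNA abundance read by NGS, three biological replicates, DESeq2 with apeglm shrinkage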
Experiment: shrunken log2 fold change of peptide-encoding DNA abundance (4.5 h post-induction vs induction); higher = less antimicrobial activity (less host growth inhibition)
Settings: time post-induction: 4.5 h; library: site-saturation at positions 5, 18, 19, 20
Measured Endpoint: shrunken log2 fold change

RRIRMRPPRLPRPRPRPFCFPRP
0.222
RRIRARPPRLPRPRPRPDGVPRP
0.971
RRIRLRPPRLPRPRPRPQVGPRP
-0.203
RRIRHRPPRLPRPRPRPPCMPRP
-0.245
RRIRSRPPRLPRPRPRPWQKPRP
0.14
RRIRTRPPRLPRPRPRPVQNPRP
0.138
RRIRLRPPRLPRPRPRPSTFPRP
-0.33
RRIRTRPPRLPRPRPRPEQKPRP
0.154
